Target: Canine_OSMR_hlgG1_Fc (canine)
Sequence (chain, as listed by the source limits assumed, form in doubt): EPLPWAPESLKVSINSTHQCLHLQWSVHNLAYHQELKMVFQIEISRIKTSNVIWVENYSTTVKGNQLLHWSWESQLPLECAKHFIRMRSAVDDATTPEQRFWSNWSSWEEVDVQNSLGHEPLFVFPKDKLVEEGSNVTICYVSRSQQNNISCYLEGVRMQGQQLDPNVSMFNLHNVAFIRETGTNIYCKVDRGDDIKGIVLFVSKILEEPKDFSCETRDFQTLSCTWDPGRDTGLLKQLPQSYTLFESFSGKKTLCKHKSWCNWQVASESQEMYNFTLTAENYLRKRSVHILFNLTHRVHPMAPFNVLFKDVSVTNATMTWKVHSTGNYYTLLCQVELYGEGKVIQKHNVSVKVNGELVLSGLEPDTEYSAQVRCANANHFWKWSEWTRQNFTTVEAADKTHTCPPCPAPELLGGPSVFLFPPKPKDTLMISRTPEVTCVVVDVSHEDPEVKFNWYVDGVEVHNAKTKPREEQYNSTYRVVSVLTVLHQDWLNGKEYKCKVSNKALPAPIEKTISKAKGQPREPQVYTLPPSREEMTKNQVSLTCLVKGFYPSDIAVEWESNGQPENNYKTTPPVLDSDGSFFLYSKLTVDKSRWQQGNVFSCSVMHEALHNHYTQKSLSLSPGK
Assay: SPR Biacore, OSMR on chip
measurement.label: kon (M⁻¹ s⁻¹)
Respond with the bare value in M⁻¹ s⁻¹.

What kon value was documented for this binder, mouse: canine 09E09 chimera (antibody, V domains shown) VH: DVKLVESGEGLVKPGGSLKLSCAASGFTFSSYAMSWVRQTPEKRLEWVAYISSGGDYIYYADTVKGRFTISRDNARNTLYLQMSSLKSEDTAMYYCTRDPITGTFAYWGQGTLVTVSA VL: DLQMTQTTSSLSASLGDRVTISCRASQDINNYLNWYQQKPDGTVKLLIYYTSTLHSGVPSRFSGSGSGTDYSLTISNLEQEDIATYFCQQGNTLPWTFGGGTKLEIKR ?
196000

What kon value was documented for this binder, mouse: canine 19F07 chimera (antibody, V domains shown) VH: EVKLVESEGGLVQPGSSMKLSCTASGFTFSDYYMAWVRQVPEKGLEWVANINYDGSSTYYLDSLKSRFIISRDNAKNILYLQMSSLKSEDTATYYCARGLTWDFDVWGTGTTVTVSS VL: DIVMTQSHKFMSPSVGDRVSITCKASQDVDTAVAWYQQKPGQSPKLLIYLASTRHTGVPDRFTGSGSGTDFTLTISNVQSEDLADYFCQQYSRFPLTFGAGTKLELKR ?
1900

What kon value was documented for this binder, mouse: canine 10F07 chimera (antibody, V domains shown) VH: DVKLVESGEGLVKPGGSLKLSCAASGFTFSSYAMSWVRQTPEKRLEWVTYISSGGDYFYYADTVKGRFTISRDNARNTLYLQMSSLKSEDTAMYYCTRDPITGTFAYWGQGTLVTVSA VL: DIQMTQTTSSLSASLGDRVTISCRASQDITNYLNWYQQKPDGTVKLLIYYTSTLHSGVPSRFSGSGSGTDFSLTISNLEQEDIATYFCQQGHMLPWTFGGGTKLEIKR ?
161000

What kon value was documented for this binder, mouse: canine 02D09 chimera (antibody, V domains shown) VH: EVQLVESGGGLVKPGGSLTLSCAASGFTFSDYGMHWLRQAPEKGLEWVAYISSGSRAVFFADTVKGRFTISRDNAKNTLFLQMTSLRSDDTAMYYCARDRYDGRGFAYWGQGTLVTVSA VL: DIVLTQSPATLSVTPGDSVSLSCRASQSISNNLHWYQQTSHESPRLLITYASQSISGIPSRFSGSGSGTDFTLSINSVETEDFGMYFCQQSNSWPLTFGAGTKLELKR ?
256000
